# TARGET_OF_ASSAY: T1, Myo2-GTD D1297N (Saccharomyces cerevisiae)
# T1 chain: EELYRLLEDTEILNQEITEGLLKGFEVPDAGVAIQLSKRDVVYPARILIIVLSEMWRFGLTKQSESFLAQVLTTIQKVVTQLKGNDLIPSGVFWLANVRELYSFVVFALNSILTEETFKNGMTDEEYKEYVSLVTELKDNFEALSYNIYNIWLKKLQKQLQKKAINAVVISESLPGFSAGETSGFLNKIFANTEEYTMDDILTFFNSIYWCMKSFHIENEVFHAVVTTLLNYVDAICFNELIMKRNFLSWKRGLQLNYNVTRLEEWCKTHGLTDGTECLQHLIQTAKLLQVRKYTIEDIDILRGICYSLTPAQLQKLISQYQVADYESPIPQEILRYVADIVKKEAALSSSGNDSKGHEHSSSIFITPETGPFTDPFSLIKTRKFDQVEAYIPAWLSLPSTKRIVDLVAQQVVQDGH
# ASSAY_NOTES: ITC
pKd: −log10 of the molar value.
Listed below: pKd values for each entry.
VALUE_TYPE: pKd

>>> endpoint_result("GNSARIPCPKTRLARVSVLDLKKIEEQPDSSSG [Mmr1]")
4.68
>>> endpoint_result("SSSSIATTGSQESFVARPFKKGLNLHSIKVTSSTPK (domain or fragment) [Smy1-MIS (Myo2-interacting sequence of Smy1)]")
4.85
>>> endpoint_result("Kar9^C-MIS (Myo2-interacting sequence in the C-terminal region of Kar9) (domain or fragment) ALKGKKLGKALLQKMNIKPATSPNSSNAINPFFDPESPNKGKLILSSVPPLPY")
5.11
>>> endpoint_result("GST-Pea2-CC1 (GST-tagged Pea2-CC1; dimer) (domain or fragment, N-terminal GST (pGEX-4T-1) left out; GST drives the dimerization) AIQEEDSSKKLEELETAFSDLQLAHNFLTKQFENDRAEYVQDIEKLTRTNRELQDKLLNNHSNLSKTEKKLHELEQENKELEKANNKLNSSRH")
5.00
